Where these numbers come from: patent US11325899B2

# study system: EP2 receptor (Homo sapiens)
# Construct: SF295 glioblastoma cells express high endogenous EP2 and no EP4
# procedure summary: hEP2 cAMP assay (SF295 glioblastoma cells, HTRF cAMP, PGE2 stimulation)
# measurement conditions: antagonistic activity
Consider the following compounds and their measured pIC50 readings.
Remember, pIC50 is on a log scale: it is -log10 of the molar concentration.

# count of solved cases: 2
>  <molecule>
Cc1sc2c(C)cc(F)cc2c1CCNc1cc(-c2ccc(C(=O)O)c(OC3CCCC3)c2)ncn1

>  <pIC50>
7.08

$$$$
>  <molecule>
CCOc1cc(-c2cc(NCCc3c(C)sc4c(C)cc(F)cc34)ncn2)ccc1-c1nnn[nH]1

>  <pIC50>
7.42

$$$$

pIC50 measured on "CCOc1cc(-c2cc(NCCc3c(C)sc4c(C)cc(F)cc34)ncn2)sc1-c1nnn[nH]1" = 8.40

pIC50 measured on "Cc1cc(-c2cc(NCCc3c(C)sc4c(C)cccc34)ncn2)sc1C(=O)O" = 7.74

pIC50 measured on "CCOc1cc(-c2cc(NCCc3c(C)oc4c(C)cc(F)cc34)ncn2)ccc1OCC(=O)O" = 6.94

pIC50 measured on "CCOc1cc(-c2cc(NCCc3c(Cl)sc4c(C)cc(F)cc34)ncn2)ccc1C(=O)O" = 7.92

###

# study system: PTGER4 (EP4) (Homo sapiens, UniProt P35408)
# Construct: host or cells: HEK 293 (PathHunter PTGER4 b-arrestin cell line)
# Sequence (P35408 whole entry): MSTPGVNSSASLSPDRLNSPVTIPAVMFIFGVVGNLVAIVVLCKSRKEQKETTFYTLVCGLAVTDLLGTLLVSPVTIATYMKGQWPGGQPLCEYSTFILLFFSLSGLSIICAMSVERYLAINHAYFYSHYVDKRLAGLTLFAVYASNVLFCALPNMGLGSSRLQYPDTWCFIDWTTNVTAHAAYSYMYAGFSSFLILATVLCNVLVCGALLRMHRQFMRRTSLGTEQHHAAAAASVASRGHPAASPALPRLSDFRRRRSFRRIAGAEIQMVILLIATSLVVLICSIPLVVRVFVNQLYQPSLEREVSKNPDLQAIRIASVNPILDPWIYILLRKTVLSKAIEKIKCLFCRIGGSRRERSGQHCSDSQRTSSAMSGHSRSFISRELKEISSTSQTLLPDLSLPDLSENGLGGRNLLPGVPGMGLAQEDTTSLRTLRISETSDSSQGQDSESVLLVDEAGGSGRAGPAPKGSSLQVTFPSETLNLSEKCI
# procedure summary: hEP4 b-arrestin assay (PathHunter HEK 293 PTGER4 b-arrestin cells)
# Type: cell-based
# measurement conditions: antagonistic activity, beta-arrestin assay; read-out: hEP4 b-arr IC50
recorded metric: pIC50
Remember, pIC50 is on a log scale: it is -log10 of the molar concentration.

# count of solved cases: 5
>  <molecule>
CCOc1cc(-c2cc(NCCc3c(C)sc4c(C)cc(F)cc34)ncn2)sc1CCC(=O)O [Example 97]

>  <pIC50>
7.08

$$$$
>  <molecule>
COc1ccc(Cl)c2c(CCNc3cc(-c4ccc(C(=O)O)c(OC5CCC5)c4)ncn3)c(C)sc12 [Example 135]

>  <pIC50>
6.63

$$$$
>  <molecule>
CSc1cc(-c2cc(NCCc3c(C)sc4c(C)ccc(Cl)c34)ncn2)ccc1C(=O)O [Example 19]

>  <pIC50>
6.38

$$$$
>  <molecule>
CCOc1cc(-c2cc(NCCc3c(CC)oc4c(C)cc(F)cc34)ncn2)sc1C(=O)O [Example 39]

>  <pIC50>
7.30

$$$$
>  <molecule>
COc1ccc(Cl)c2c(CCNc3cc(-c4ccc(C(=O)O)c(O)c4)ncn3)c(C)sc12 [Example 9]

>  <pIC50>
5.78

$$$$

pIC50 measured on CCc1cc(-c2cc(NCCc3c(C)sc4c(C)cc(F)cc34)ncn2)ccc1C(=O)OC [Example 181] = 6.37

pIC50 measured on CCOc1cc(-c2cc(NCCc3c(C)sc4c(C)cc(F)cc34)ncn2)sc1CC(=O)OC [Example 95] = 6.32

###

Consider the following compounds and their measured pIC50 readings.
# study system: UniProt:P43116
# procedure summary: hEP2 b-arrestin assay (PathHunter HEK 293 PTGER2 b-arrestin cells)
# measurement conditions: antagonistic activity, beta-arrestin assay; read-out: hEP2 b-arr IC50
Remember, pIC50 is on a log scale: it is -log10 of the molar concentration.

# count of solved cases: 2
>  <molecule>
CCOc1cc(-c2cc(NCCc3c(C)sc4c(C)cccc34)ncn2)ccc1OCC(=O)O

>  <observed measurement>
7.85

$$$$
>  <molecule>
Cc1sc2c(C)cccc2c1CCNc1cc(-c2ccc(C(=O)O)c(SC(C)C)c2)ncn1

>  <observed measurement>
7.96

$$$$

pIC50 measured on "CSc1cc(-c2cc(NCCc3c(C)sc4c(C)ccc(Cl)c34)ncn2)ccc1C(=O)O" = 7.92

pIC50 measured on "CCOc1cc(-c2cc(NCCc3c(Cl)sc4ccccc34)ncn2)ccc1C(=O)O" = 8.10

pIC50 measured on "Cc1sc2c(C)cc(F)cc2c1CCNc1cc(-c2cc3c(C(=O)O)cccc3[nH]2)ncn1" = 7.89

pIC50 measured on "CCOc1cc(-c2cc(NCCc3c(C)oc4c(Cl)cccc34)ncn2)ccc1C(=O)O" = 7.85

pIC50 measured on "CCOc1cc(-c2cc(NCCc3c(C)sc4c(C)c(F)ccc34)ncn2)ccc1C(=O)O" = 7.92

pIC50 measured on "CSc1cc(-c2cc(NCCc3c(C)sc4c(Cl)cc(F)cc34)ncn2)ccc1C(=O)O" = 8.05

pIC50 measured on "CSc1cc(-c2cc(NCCc3c(C)oc4ccccc34)ncn2)cc(Cl)c1C(=O)O" = 8.00

pIC50 measured on "COc1ccc(Cl)c2c(CCNc3cc(-c4ccc(C(=O)O)c(SC)c4)ncn3)c(C)sc12" = 8.22

###

# study system: EP2 receptor (Homo sapiens, UniProt P43116)
# Construct: SF295 glioblastoma cells express high endogenous EP2 and no EP4
# Sequence (P43116 whole entry): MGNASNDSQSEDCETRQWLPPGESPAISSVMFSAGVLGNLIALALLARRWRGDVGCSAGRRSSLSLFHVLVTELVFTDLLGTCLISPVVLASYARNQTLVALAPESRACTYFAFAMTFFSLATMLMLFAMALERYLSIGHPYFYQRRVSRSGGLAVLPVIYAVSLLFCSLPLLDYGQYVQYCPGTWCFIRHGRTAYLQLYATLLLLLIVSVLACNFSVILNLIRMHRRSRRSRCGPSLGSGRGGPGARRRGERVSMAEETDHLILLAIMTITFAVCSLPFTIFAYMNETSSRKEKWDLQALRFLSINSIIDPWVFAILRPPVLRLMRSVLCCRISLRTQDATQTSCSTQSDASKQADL
# procedure summary: hEP2 cAMP assay (SF295 glioblastoma cells, HTRF cAMP, PGE2 stimulation)
# measurement conditions: antagonistic activity
Consider the following molecules and their measured pIC50 readings.
Remember, pIC50 is on a log scale: it is -log10 of the molar concentration.

Noted pIC50 for "CCc1cc(-c2cc(NCCc3c(C)sc4c(C)cc(F)cc34)ncn2)cc(C)c1CC(=O)O" , tested on EP2 receptor (Homo sapiens, UniProt P43116): 6.49

Noted pIC50 for "CCOc1cc(-c2cc(NCCc3c(C#N)sc4c(OC)cccc34)ncn2)ccc1C(=O)O" , tested on EP2 receptor (Homo sapiens, UniProt P43116): 7.11

###

# study system: PTGER2 (EP2) (Homo sapiens, UniProt P43116)
# procedure summary: hEP2 b-arrestin assay (PathHunter HEK 293 PTGER2 b-arrestin cells)
# measurement conditions: antagonistic activity, beta-arrestin assay; read-out: hEP2 b-arr IC50
recorded metric: pIC50
Remember, pIC50 is on a log scale: it is -log10 of the molar concentration.

Noted pIC50 for "CCCc1cc(-c2cc(NCCc3c(C)sc4c(C)cc(F)cc34)ncn2)ccc1C(=O)NCC(C)(C)O" , tested on PTGER2 (EP2) (Homo sapiens, UniProt P43116): 7.59

Noted pIC50 for "Cc1sc2c(C)cc(F)cc2c1CCNc1cc(-c2ccc(CC(=O)O)c(OC3CC3)c2)ncn1" , tested on PTGER2 (EP2) (Homo sapiens, UniProt P43116): 7.80

Noted pIC50 for "CCOc1cc(-c2cc(NCCc3c(C)sc4c(OC)ccc(F)c34)ncn2)sc1C(=O)O" , tested on PTGER2 (EP2) (Homo sapiens, UniProt P43116): 8.70

Noted pIC50 for "CSc1cc(-c2cc(NCCc3c(C)sc4c(Cl)ccc(Cl)c34)ncn2)ccc1C(=O)O" , tested on PTGER2 (EP2) (Homo sapiens, UniProt P43116): 7.52

Noted pIC50 for "CCOc1cc(-c2cc(NCCc3c(C)sc4c(C)cc(F)cc34)ncn2)ccc1C(=O)O" , tested on PTGER2 (EP2) (Homo sapiens, UniProt P43116): 7.89

###

Consider the following compounds and their measured pIC50 readings.
# study system: PTGER2 (EP2) (Homo sapiens, UniProt P43116)
# procedure summary: hEP2 b-arrestin assay (PathHunter HEK 293 PTGER2 b-arrestin cells)
# measurement conditions: antagonistic activity, beta-arrestin assay; read-out: hEP2 b-arr IC50
Remember, pIC50 is on a log scale: it is -log10 of the molar concentration.

>  <molecule>
Cc1sc2c(C)cc(F)cc2c1CCNc1cc(-c2ccc(C(=O)O)c(OCCO)c2)ncn1

>  <pIC50>
7.72

$$$$
>  <molecule>
CCCc1cc(-c2cc(NCCc3c(C)sc4c(C)cc(F)cc34)ncn2)ccc1C(=O)NC

>  <pIC50>
7.72

$$$$

Here's the next entry for you.
pIC50 measured on "CCOc1cc(-c2cc(NCCc3c(C)sc4c(C)ccc(F)c34)ncn2)ccc1C(=O)O" = 7.66

###

# study system: EP2 receptor (Homo sapiens, UniProt P43116)
# Construct: SF295 glioblastoma cells express high endogenous EP2 and no EP4
# procedure summary: hEP2 cAMP assay (SF295 glioblastoma cells, HTRF cAMP, PGE2 stimulation)
# measurement conditions: antagonistic activity
recorded metric: pIC50
Remember, pIC50 is on a log scale: it is -log10 of the molar concentration.

>  <molecule>
CCOc1cc(-c2cc(NCCc3c(C)sc4c(C)c(F)ccc34)ncn2)ccc1OCC(=O)O

>  <observed measurement>
6.92

$$$$
>  <molecule>
COc1ccc(Cl)c2c(CCNc3cc(-c4ccc(C(=O)O)c(OC(C)C)c4)ncn3)c(C)sc12

>  <observed measurement>
7.28

$$$$
>  <molecule>
CCCOc1cc(-c2cc(NCCc3c(C)sc4c(C)c(F)ccc34)ncn2)ccc1C(=O)O

>  <observed measurement>
7.52

$$$$
>  <molecule>
CCOc1cc(-c2cc(NCCc3c(C)sc4c(C)cccc34)ncn2)sc1C(=O)O

>  <observed measurement>
8.40

$$$$
>  <molecule>
CSc1cc(-c2cc(NCCc3c(C)sc4c(Cl)cc(F)cc34)ncn2)ccc1C(=O)O

>  <observed measurement>
7.57

$$$$
>  <molecule>
CCOc1cc(-c2cc(NCCc3c(C)sc4c(C)cc(F)cc34)ncn2)ccc1C(=O)C(=O)O

>  <observed measurement>
7.57

$$$$

pIC50 measured on "CCCc1cc(-c2cc(NCCc3c(C)sc4c(C)cc(F)cc34)ncn2)cc(F)c1C(=O)O" = 7.46

pIC50 measured on "CSc1cc(-c2cc(NCCc3c(C)sc4ccccc34)ncn2)cc(F)c1C(=O)O" = 8.70

pIC50 measured on "Cc1sc2c(C)cc(F)cc2c1CCNc1cc(-c2cc3ccc(C(=O)O)cc3[nH]2)ncn1" = 7.70
